Experiment: Binding of compounds to free synthetic melanin (Example 3)
Settings: free synthetic melanin 50 μg/mL, compound 10 μM in PBS, 37° C., 1 hour; relative percentage of compound bound, measured spectrophotometrically from compound left in solution
# binarize % Melanin Bound: threshold 7% inclusive, high side met, low side not met

In: Would you say Cl.c1ccncc1 [Pyridine hydrochloride] shows % Melanin Bound at minimum 7%?
Out: not met

In: Check if % Melanin Bound >= 7% (inclusive). Item: OCC[n+]1ccccc1.[Cl-] [1-(2-Hydroxyethyl) pyridinium chloride]
Out: not met

In: Quick check, % Melanin Bound >= 7%? NC(=O)c1cccnc1 [Niacinamide]
Out: not met

In: Could you please find out whether O=C(O)/C=C/c1ccc(O)c(O)c1 has % Melanin Bound that meets 7% or exceeds it?
Out: not met

* * *

Experiment: Binding of compounds to free synthetic melanin (Example 3)
Settings: free synthetic melanin 50 μg/mL, compound 10 μM in PBS, 37° C., 1 hour; relative percentage of compound bound, measured spectrophotometrically from compound left in solution
Reported Property: % Melanin Bound

O=C(O)c1cc(O)c(O)c(O)c1    0%
Oc1cccc(O)c1O    Not detected
CCN(CC)CCCC(C)Nc1ccnc2cc(Cl)ccc12 (stereo not drawn)    48.6%
CCCC[n+]1ccccc1.[Cl-] [1-Butylpyridinium chloride]    0%
Nc1cnc2ccccc2c1    5.1%

Kindly consider the entry below.
In: Query (compound): O=CC[C@@H](O)[C@H](O)[C@H](O)CO ; field requested: % Melanin Bound
Out: Not detected

* * *

Assay: Binding of compounds to free synthetic melanin (Example 3)
Settings: free synthetic melanin 50 μg/mL, compound 10 μM in PBS, 37° C., 1 hour; relative percentage of compound bound, measured spectrophotometrically from compound left in solution
Reported Property: % Melanin Bound (%)
Respond numerically; units are % and should not be typed.

Oc1ccccc1O    21.5

In: I am curious: what % Melanin Bound value has been reported for O=C(O)CCSCCC(=O)O ?
Out: 1.5

In: Tell me the measured % Melanin Bound of OCCc1c[nH]c2ccccc12 [3-(2-Hydroxyethyl)indole] , please.
Out: 6.5

In: I'd like to know its % Melanin Bound. The compound in question is c1ccc2[nH]ccc2c1
Out: 7.3

In: Please give the measured % Melanin Bound for this compound: CCCCCCCCCCCC[n+]1ccc(N)cc1.[Cl-] [4-Amino-1-dodecyl-pyridinium chloride]
Out: 49.5

In: Item under review: O=c1c(O)c(-c2ccc(O)c(O)c2)oc2cc(O)cc(O)c12 . Reported % Melanin Bound?
Out: 99.7

In: Form field: reported % Melanin Bound of Cn1c(=O)c2c(ncn2C)n(C)c1=O
Out: 4.4
